# System: DNA: Calf thymus sodium salt
# Assay name: DNA binding assay, ethidium bromide displacement
# Set-up: key: NB = Not binding
# Condition details: concentration required to displace 50% of the ethidium bromide; 20 μM DNA, 2 μM dye

{"columns": ["Compound", "QE50 Intercalating"],
 "data": [
  ["C[C@H](N)C(=O)OCCCCNc1cccc2c1C(=O)c1ccccc1C2=O.O=C(O)C(F)(F)F [Example 43]", "NB"],
  ["O=C1c2c(O)ccc(O)c2C(=O)c2c(NCCNCCO)ccc(NCCNCCO)c21 [Mitoxantrone, reference compound]", "0.8 ± 0.3 µM"],
  ["O=C(O)C(F)(F)F.O=C1c2ccccc2C(=O)c2c(NCCOC(=O)[C@@H]3CCCN3)cccc21 [Example 137]", "NB"],
  ["C[C@H](N)C(=O)OCCCNc1cccc2c1C(=O)c1ccccc1C2=O.O=C(O)C(F)(F)F [Example 29]", "NB"],
  ["O=C(O)C(F)(F)F.O=C1c2ccccc2C(=O)c2c(NCCCOC(=O)[C@H]3CCCN3)cccc21 [Example 69]", "NB"],
  ["CC(C)[C@H](N)C(=O)OCCCCNc1ccc(O)c2c1C(=O)c1ccccc1C2=O.O=C(O)C(F)(F)F [Example 53]", "2.9 µM"],
  ["N[C@@H](Cc1ccccc1)C(=O)OCCNc1cccc2c1C(=O)c1ccccc1C2=O.O=C(O)C(F)(F)F [Example 33]", "NB"]
]}

----------
# Tested on: Topoisomerase IIβ (Homo sapiens)
# Assay name: Topo II relaxation assay
# Assay type: biochemical
# Condition details: unit not given; compound at 1, 10, 25 and 50 μM in protocol
Quick reference: TopIIβ Relax. of the listed items.

{"columns": ["Molecule", "TopIIβ Relax."],
 "data": [
  ["C[C@H](N)C(=O)OCCCCNc1cccc2c1C(=O)c1ccccc1C2=O.O=C(O)C(F)(F)F [Example 43]", 15],
  ["O=C(O)C(F)(F)F.O=C1c2ccccc2C(=O)c2c(NCCCCOC(=O)[C@H]3CCCN3)cccc21 [Example 49]", 25],
  ["CC(C)[C@H](N)C(=O)OCCCNc1ccc(O)c2c1C(=O)c1c(O)cccc1C2=O.O=C(O)C(F)(F)F [Example 57]", 25],
  ["O=C(O)C(F)(F)F.O=C1c2ccccc2C(=O)c2c(NCCCCOC(=O)[C@@H]3CCCN3)cccc21 [Example 47]", 10],
  ["C[C@@H](N)C(=O)OCCCCNc1cccc2c1C(=O)c1ccccc1C2=O.O=C(O)C(F)(F)F [Example 45]", 25]
]}

----------
# Tested on: Topoisomerase IIβ (Homo sapiens, UniProt Q02880)
# Sequence (Q02880 whole entry): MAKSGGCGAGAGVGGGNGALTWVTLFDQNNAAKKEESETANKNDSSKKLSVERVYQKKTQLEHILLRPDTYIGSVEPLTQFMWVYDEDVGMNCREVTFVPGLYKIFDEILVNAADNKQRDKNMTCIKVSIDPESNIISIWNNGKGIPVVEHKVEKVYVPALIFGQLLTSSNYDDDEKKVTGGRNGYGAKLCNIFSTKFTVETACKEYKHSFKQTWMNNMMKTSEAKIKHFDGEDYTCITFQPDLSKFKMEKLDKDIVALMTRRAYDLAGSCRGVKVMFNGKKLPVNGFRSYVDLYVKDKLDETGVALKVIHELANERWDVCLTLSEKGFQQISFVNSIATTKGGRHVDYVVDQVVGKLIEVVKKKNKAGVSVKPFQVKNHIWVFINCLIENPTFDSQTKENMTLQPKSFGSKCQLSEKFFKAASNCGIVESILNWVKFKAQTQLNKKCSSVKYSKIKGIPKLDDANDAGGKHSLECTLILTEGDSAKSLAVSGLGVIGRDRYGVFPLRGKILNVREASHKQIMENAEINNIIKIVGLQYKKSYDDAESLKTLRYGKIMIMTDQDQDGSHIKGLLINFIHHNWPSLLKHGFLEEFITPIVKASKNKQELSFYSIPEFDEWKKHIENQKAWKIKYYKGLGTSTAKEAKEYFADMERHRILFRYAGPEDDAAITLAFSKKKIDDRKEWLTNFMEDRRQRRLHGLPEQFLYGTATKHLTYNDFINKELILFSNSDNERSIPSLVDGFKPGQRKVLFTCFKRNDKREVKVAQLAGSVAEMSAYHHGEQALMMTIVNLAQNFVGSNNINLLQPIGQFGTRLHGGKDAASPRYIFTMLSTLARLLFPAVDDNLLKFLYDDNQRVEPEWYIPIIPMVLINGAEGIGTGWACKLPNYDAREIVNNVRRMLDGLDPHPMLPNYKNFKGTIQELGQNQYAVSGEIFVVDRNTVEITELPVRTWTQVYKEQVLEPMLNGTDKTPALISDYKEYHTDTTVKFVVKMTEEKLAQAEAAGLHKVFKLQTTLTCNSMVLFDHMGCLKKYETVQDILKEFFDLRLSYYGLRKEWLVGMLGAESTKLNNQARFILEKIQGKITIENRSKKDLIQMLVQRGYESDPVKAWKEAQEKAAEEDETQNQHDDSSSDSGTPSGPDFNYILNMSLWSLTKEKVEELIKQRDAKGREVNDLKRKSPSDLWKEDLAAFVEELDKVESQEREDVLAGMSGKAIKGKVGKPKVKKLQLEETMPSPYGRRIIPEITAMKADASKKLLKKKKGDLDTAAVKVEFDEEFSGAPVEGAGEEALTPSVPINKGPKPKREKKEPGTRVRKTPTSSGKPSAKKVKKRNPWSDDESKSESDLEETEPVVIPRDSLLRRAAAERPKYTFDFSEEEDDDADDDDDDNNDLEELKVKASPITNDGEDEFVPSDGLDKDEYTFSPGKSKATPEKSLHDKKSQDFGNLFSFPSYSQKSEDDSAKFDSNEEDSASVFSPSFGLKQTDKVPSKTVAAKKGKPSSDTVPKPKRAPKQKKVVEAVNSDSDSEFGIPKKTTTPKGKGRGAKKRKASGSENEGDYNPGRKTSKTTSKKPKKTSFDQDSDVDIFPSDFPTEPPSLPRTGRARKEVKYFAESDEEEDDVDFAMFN
# Assay name: Topo II decatenation assay
# Assay type: biochemical
# Condition details: unit not given; kDNA substrate; compound at 1, 10, 25 and 50 μM in protocol
The following compounds are listed with their measured TopIIβ Decat. values.
Measured property: TopIIβ Decat.

{"columns": ["Entry smiles", "Experimental value"],
 "data": [
  ["CC(C)[C@H](N)C(=O)OCCCNc1ccc(O)c2c1C(=O)c1c(O)cccc1C2=O.O=C(O)C(F)(F)F", 25],
  ["C[C@H](N)C(=O)OCCCCNc1cccc2c1C(=O)c1ccccc1C2=O.O=C(O)C(F)(F)F", 25],
  ["C[C@@H](N)C(=O)OCCCCNc1cccc2c1C(=O)c1ccccc1C2=O.O=C(O)C(F)(F)F", 20],
  ["CC(C)[C@@H](N)C(=O)OCCCNc1cccc2c1C(=O)c1ccccc1C2=O.O=C(O)C(F)(F)F", 25]
]}
